All figures here come from paper PMC7561186.

# Tested on: S. aureus clinical isolates
# measurement.protocol: microbe, parasite or virus in culture
# Format: cell-based
# condition: Staphylococcus aureus, MRSA, S. aureus IHMA 1695391, MRSA / VSSA; read-out: MIC
Below: a set of entries, each annotated with reported MIC.

compound	study.system	u	comparator	MIC
C[C@H]1COc2c(N3CCN(C)CC3)c(F)cc3c(=O)c(C(=O)O)cn1c23 [Levofloxacin]	S. aureus clinical isolates	µg/mL	>	64
Cc1[nH]c(C(=O)Nc2nc3c(OCc4ccccc4)cc(C(=O)O)cc3s2)c(Cl)c1Cl [ULD2]	S. aureus clinical isolates	µg/mL	=	0.12
CC(=O)NC[C@H]1CN(c2ccc(N3CCOCC3)c(F)c2)C(=O)O1 [Linezolid]	S. aureus clinical isolates	µg/mL	=	2
CC[C@H]1OC(=O)[C@H](C)[C@@H](O[C@H]2C[C@@](C)(OC)[C@@H](O)[C@H](C)O2)[C@H](C)[C@@H](O[C@@H]2O[C@H](C)C[C@H](N(C)C)[C@H]2O)[C@](C)(O)C[C@@H](C)CN(C)[C@H](C)[C@@H](O)[C@]1(C)O [Azithromycin]	S. aureus clinical isolates	µg/mL	>	32
Cc1onc(-c2ccccc2)c1C(=O)N[C@@H]1C(=O)N2[C@@H]1SC(C)(C)[C@@H]2C(=O)O [Oxacillin]	S. aureus clinical isolates	µg/mL	>	64
Cc1[nH]c(C(=O)Nc2nc3ccc(C(=O)O)cc3s2)c(Cl)c1Cl [ULD1]	S. aureus clinical isolates	µg/mL	=	0.25
